System: A2780S
Protocol Text: Inhibition of cell growth (cells counted on Coulter Counter after six days)
Format: cell-based, human
Measurement Context: A2780S; (C) continuous exposure; read-out: EC50
Quantity Name: pEC50
// returns pEC50 (minus log10 of molar concentration), number only

Request: What pEC50 value was documented for this molecule, Nc1nc2c(ncn2[C@H]2CC[C@@H](CO)O2)c(=O)[nH]1 ?
Result: 4.22

Request: Another molecule: NC(=O)NO [NU, hydroxyurea]
Result: 4.12

Request: Another molecule: Cc1cn([C@H]2C[C@H](N=[N+]=[N-])[C@@H](CO)O2)c(=O)[nH]c1=O
Result: 5.00

Request: Another molecule: NC(=O)c1ncn([C@@H]2O[C@H](CO)[C@@H](O)[C@H]2O)n1
Result: 4.57

Request: Another molecule: Nc1ncnc2c1ncn2[C@@H]1O[C@H](CO)C[C@H]1O
Result: 4.15

Request: Another molecule: Cc1cn([C@H]2CC[C@@H](CO)O2)c(=O)[nH]c1=O
Result: 3.96

Request: Another molecule: Nc1ncnc2c1ncn2[C@H]1CC[C@@H](CO)O1
Result: 5.00
